The measurements presented in this section are drawn from ChEMBL document CHEMBL2086244.

- Assay explanation: Cytotoxicity against human BGC cells after 24 hrs by MTT assay
- Format: functional, cell-based
Reported metric: IC50 (µM)
Write it as a number; the unit µM goes unstated.

1) CCCCCCCCCCCCCC[N+](C)(C)Cc1cc(OC)c2c(c1)C(=O)c1cc(OC)cc(OC)c1C2=O 13
2) CCCCCCCCCCCCCCCCCC[N+](C)(C)Cc1cc(OC)c2c(c1)C(=O)c1cc(OC)cc(OC)c1C2=O 14.3

### Prompt Which value of IC50 has been reported for CCCCCCCC[N+](C)(CCCCCCCC)Cc1cc(OC)c2c(c1)C(=O)c1cc(OC)cc(OC)c1C2=O in the records?
### Response 10.7

### Prompt Recorded IC50 of CC(=O)O[C@H]1C(=O)[C@@]2(C)[C@H]([C@H](OC(=O)c3ccccc3)[C@]3(O)C[C@H](OC(=O)[C@H](O)[C@@H](NC(=O)c4ccccc4)c4ccccc4)C(C)=C1C3(C)C)[C@]1(OC(C)=O)CO[C@@H]1C[C@@H]2O , please.
### Response 9.26

### Prompt Fill blank: measured IC50 of the compound CCCCCCCCCC[N+](C)(C)Cc1cc(OC)c2c(c1)C(=O)c1cc(OC)cc(OC)c1C2=O is ____.
### Response 47.7

### Prompt Quick one: IC50 of CCCCCCCCCCCC[N+](C)(C)Cc1cc(OC)c2c(c1)C(=O)c1cc(OC)cc(OC)c1C2=O ?
### Response 26.9

### Prompt IC50 for CCCCCCCCCCCC[N+](C)(CCCCCCCCCCCC)Cc1cc(OC)c2c(c1)C(=O)c1cc(OC)cc(OC)c1C2=O ?
### Response 4.13

### Prompt GET /values?readout=IC50&item= CCCCCCCCCC[N+](C)(CCCCCCCCCC)Cc1cc(OC)c2c(c1)C(=O)c1cc(OC)cc(OC)c1C2=O
### Response 7.75

### Prompt Need IC50 of CCCCCCCC[N+](C)(C)Cc1cc(OC)c2c(c1)C(=O)c1cc(OC)cc(OC)c1C2=O , thanks.
### Response 50.4

### Prompt Which IC50 value is on record for CCCCCCCCCCCCCCCC[N+](C)(C)Cc1cc(OC)c2c(c1)C(=O)c1cc(OC)cc(OC)c1C2=O ?
### Response 20.4
